These data points were gathered from ChEMBL document CHEMBL1201862.

Test system: OVCAR-3
Test: NCI tumour cell line growth inhibition, 48 h
Activity calls are given as the source filed them. Cut-off read from the data, not from the text of the source: active = GI50 up to about 1.1 µM and inactive = higher.
METRIC_NAME: GI50

Q) // Input: COC(=O)c1c(C(=O)OC)c2ccccn2c1-c1cc(C)cc2c1C(=O)C=CC2=O . Output its GI50 only.
A) 11 µM (inactive)

Q) Provide measured GI50 value, entry: CC1OC(OC2C(O)COC(OC3C(C)OC(OC4C(OC(=O)[C@]56CCC(C)(C)C[C@@H]5C5=CCC7[C@@]8(C)C[C@H](O)[C@H](OC9OC(CO)C(O)C(O)C9O)[C@@](C)(CO)[C@@H]8CC[C@@]7(C)[C@]5(C)CC6)OCC(O)C4O)C(O)C3OC3OCC(O)(CO)C3O)C2O)C(O)C(O)C1O (stereo partly drawn)
A) 18.9 µM (inactive)

Q) For the molecule O=C1C=CC2OC(c3ccccc3)C(O)C2O1 (stereo not drawn) , report GI50.
A) 3.5 µM (inactive)

Q) Fill in GI50 for record COc1cc2c(cc1OC)C1(c3ccc(Cl)cc3)ON=C(c3ccccc3)N1CS2 (stereo not drawn)
A) > 100 µM (inactive)

Q) Identify measured GI50 corresponding to O=S1(=O)OCc2ccccc21
A) 32.5 µM (inactive)

Q) Provide only the value of recorded GI50 for O=C1C(=Cc2cccc(Cl)c2)N=C(c2ccccc2)N1n1c(-c2ccccc2)nc2ccccc2c1=O
A) 28 µM (inactive)

Q) Give the measured GI50 for CO/N=C(\C)c1cccc(Nc2c3ccccc3nc3occc23)c1
A) 4.72 µM (inactive)

Q) Annotate the molecule CN(C(=O)C12C3C4C1C1C2C3C41C#N)C(C)(C)C (stereo not drawn) with its measured GI50.
A) > 100 µM (inactive)

* * *

Record form. Attribute: GI50. Fill in for each entry.
Tested on: OVCAR-3
Assay: NCI tumour cell line growth inhibition, 48 h
Activity calls are given as the source filed them. Rule as the data show it: active = GI50 up to about 1.1 µM and inactive = higher.

Q) Specify reported GI50 for the compound shown: Cc1cc2c(c(C(=O)NCC(=O)N[C@@H](C)C(=O)OCc3ccccc3)c1)Oc1c(cc(C)cc1C(=O)NCC(=O)N[C@@H](C)C(=O)OCc1ccccc1)S2
A) 22 µM (inactive)

Q) Tell me GI50 reported for O=c1[nH]c(=O)n(C2CC(O)C(CS)O2)cc1F (configuration not stated)
A) > 92.3 µM (inactive)

Q) Identify the reported GI50 for the following entry. O=C(O)CCC(=O)Nc1ccc2ccccc2c1
A) > 100 µM (inactive)

Q) Name the recorded GI50 of the compound listed here: CCC(=O)Nc1ccc(NCC(=O)Nc2ccc(OC)cc2)cc1
A) 25.2 µM (inactive)

Q) Given O=C(c1ccc(F)cc1)c1cccc(C(=O)c2ccc(F)cc2)n1 , respond with its GI50.
A) > 100 µM (inactive)

Q) Quote GI50 reported for C/C(CC(=O)Nc1cccc(Cl)c1C)=N\N=C(N)N please.
A) > 100 µM (inactive)

Q) Query GI50 for CCOP(=O)(OCC)C(c1ccc(F)cc1)N(C(=O)NC(F)(F)F)c1cccc(C(F)(F)F)c1 (configuration not stated)
A) > 100 µM (inactive)

Q) Give GI50 for COCOC1/C=C/CCCCC2=C(C)C=C(C1)O2 (configuration not stated)
A) > 100 µM (inactive)

Q) Please give the documented GI50 of Cc1cc2ccccc2n1CC(=O)NCC(C)C
A) > 100 µM (inactive)

Q) Please report the measured GI50 for CC1(c2cccs2)CC(c2cccs2)=C(C#N)C(=C(C#N)C#N)N1 (configuration not stated)
A) 16.3 µM (inactive)

Q) Look up GI50 of CCOc1ccc(OP2(=O)NC(=O)C=C(C)N2)cc1 (configuration not stated) and report it.
A) > 100 µM (inactive)

Q) Provide GI50 value for the following compound: CC(=O)N(C(=O)CC(=O)N1N=C(c2ccccc2)C(/N=N/c2ccccc2[N+](=O)[O-])C1=O)c1ccc(Cl)cc1 (configuration not stated)
A) > 10 µM (inactive)

Q) Please look at this compound and report its GI50: [N-]=[N+]=CC(=O)OC1Cc2ccccc2C1
A) > 100 µM (inactive)

Q) Give the measured GI50 for Oc1ccc(Cl)cc1C1=Nn2c(COc3ccc4c(c3)CCCC4)nnc2SC1
A) 12.6 µM (inactive)

Q) Identify GI50 associated with the compound COC(=O)c1c2c(cc3c1CC1(Cc4ccc(C(C)=O)cc4C1)C3)CCC2 (configuration not stated)
A) > 100 µM (inactive)

Q) Quote GI50 reported for N#CCCN(CCC#N)c1ccc(/C=C2\N=C(c3ccccc3)N(c3ccccc3)C2=O)cc1 please.
A) > 100 µM (inactive)

Q) State, in one line, measured GI50 of CCOc1cccc(/C=N/N=C2\C(=O)Nc3c(Cl)cc(Cl)cc32)c1O
A) 36.9 µM (inactive)

Q) // Input: CCOC(CN=C=S)OCC . Output its GI50 only.
A) > 10 µM (inactive)

Q) Note GI50 for the compound shown: O=P1(C(O)/C=C/c2ccccc2)N(Cc2ccccc2)[C@H](c2ccccc2)[C@@H](c2ccccc2)N1Cc1ccccc1 (some centres not stated)
A) 16.9 µM (inactive)

Q) Answer with the recorded GI50 of COC(=O)Nc1nc2cc(NC(=O)c3cccs3)ccc2[nH]1 only.
A) 19.2 µM (inactive)

Q) Give GI50 for Cc1cc2c(=O)n(-c3ccc(F)cc3)c(C)nc2c(C(=O)O)c1C
A) > 100 µM (inactive)

Q) Name the recorded GI50 of the item CCOC(=O)C1(C(=O)OCC)C[C@H]2CON=C2[C@@H]1c1ccc(C(F)(F)F)cc1 in your answer.
A) 40.1 µM (inactive)

* * *

Tested on: MOLT-4
Experiment: NCI tumour cell line growth inhibition, 48 h
The source made the active and inactive calls. Cut-off read from the data, not from the text of the source: active = GI50 up to about 1.1 µM and inactive = higher.
METRIC_NAME: GI50

Q) Please report GI50 for the following compound: CC(C)CC(NC(=O)C(COc1ccc([N+](=O)[O-])cc1)Cc1ccccc1)C(=O)Nc1ccccc1 (stereo not given)
A) 22.1 µM (inactive)

Q) Return GI50 for the following compound: CCn1c(SCC(=O)N/N=C2\SCC(=O)N2c2ccc(C)cc2)nc2ccccc2c1=O
A) 25.9 µM (inactive)

Q) Name the recorded GI50 of the compound listed here: Cc1ccc(/C=c2\c(=O)[nH]c3nc4ccccc4c(=O)n23)cc1
A) 38.8 µM (inactive)

Q) Given the compound CCOC(OCC)[C@@H]1C[C@@H]2N(O[C@H](OC3CCCC3(c3ccccc3)c3ccccc3)[C@H](OC(C)=O)[C@@]2(CC)Cc2ccc(OC)c(OC)c2)O1 (stereo not given in full) , write its reported GI50.
A) > 100 µM (inactive)

Q) Using the record for Cc1nc2ccccc2c(=O)n1NC(=O)c1ccc([N+](=O)[O-])cc1 , state its measured GI50.
A) > 100 µM (inactive)

Q) For the compound COC(=O)C1=CO[C@@H](OC2OC(CO)C(O)C(O)C2O)[C@H]2[C@@H](C)[C@@H](O)[C@@H](O)[C@@H]12 (stereo not given in full) , give its measured GI50 value.
A) > 100 µM (inactive)

Q) # return recorded GI50 for entry COC(=O)c1csc(-c2nc(CCNC(=O)OC(C)(C)C)sc2Br)n1
A) > 100 µM (inactive)

Q) Give the measured GI50 for CC(=O)C1C(=O)C(C(C)=O)C2C3C=CC(C3)C12 (stereo not given)
A) > 100 µM (inactive)

Q) Tell me its GI50 given O=C(O)CCC(NC(=O)c1ccc(CNc2nc3ccccc3nc2C(=O)O)cc1)C(=O)O (stereo not given) as the entry.
A) > 100 µM (inactive)

Q) Provide one value: measured GI50 of O=C(N/C(=C\c1c(O)ccc2ccccc12)c1nc2ccccc2[nH]1)c1ccccc1
A) > 100 µM (inactive)

Q) Return GI50 for the following compound: Oc1ccc(Cn2c(-c3ccc(O)cc3)nc3ccccc32)cc1
A) > 100 µM (inactive)

Q) Supply measured GI50 of CCn1c2c(c3ccccc31)C(c1ccccc1)CC1C(=O)N(c3ccccc3)C(=O)C21 (stereo not given) in your reply.
A) 91.2 µM (inactive)

Q) Fill in reported GI50 for this entry: OCc1ccc2[n+](c1)CCC1c3ccccc3NC21 (stereo not given)
A) > 300 µM (inactive)

Q) Let me know recorded GI50 for CC(C)Oc1cc(O)c2c(c1)OCC=C2CCC(=O)O , thanks.
A) 23.8 µM (inactive)

Q) Quick one: give measured GI50 for O=C(CSc1nc2ccc(I)cc2c(=O)n1Cc1ccccc1)Nc1ccc(Br)cc1
A) > 100 µM (inactive)

Q) Please report GI50 for the following compound: O=P1(c2ccccc2)c2ccccc2CCc2ccccc21
A) 33.6 µM (inactive)

Q) Give the reported value of GI50 for this record: CC1=NN(C(=O)c2ccccc2O)C(=O)/C1=C/c1ccco1
A) 1.93 µM (inactive)

Q) Tell me measured GI50 for CC(=O)O/N=C(Cl)/C(Cl)=N/OC(C)=O please.
A) > 100 µM (inactive)

Q) Supply recorded GI50 for Cc1cc(Br)cc(C)c1NC(=O)C(=O)C(C(=O)c1ccc(Cl)c(Cl)c1)C1OC(=O)c2ccccc21 (stereo not given) here.
A) 12.6 µM (inactive)

Q) State, in one line, measured GI50 of O=C1OC(C(O)CO)C(C(O)CO)OC1=O (stereo not given)
A) > 10 µM (inactive)
